MEASURED TARGET: Tryptophan 2,3-dioxygenase (Homo sapiens, UniProt P48775)
ASSAY: Inhibition of TDO (unknown origin) using L-tryptophan as substrate by spectrophotometric method
Sequence (P48775 whole entry): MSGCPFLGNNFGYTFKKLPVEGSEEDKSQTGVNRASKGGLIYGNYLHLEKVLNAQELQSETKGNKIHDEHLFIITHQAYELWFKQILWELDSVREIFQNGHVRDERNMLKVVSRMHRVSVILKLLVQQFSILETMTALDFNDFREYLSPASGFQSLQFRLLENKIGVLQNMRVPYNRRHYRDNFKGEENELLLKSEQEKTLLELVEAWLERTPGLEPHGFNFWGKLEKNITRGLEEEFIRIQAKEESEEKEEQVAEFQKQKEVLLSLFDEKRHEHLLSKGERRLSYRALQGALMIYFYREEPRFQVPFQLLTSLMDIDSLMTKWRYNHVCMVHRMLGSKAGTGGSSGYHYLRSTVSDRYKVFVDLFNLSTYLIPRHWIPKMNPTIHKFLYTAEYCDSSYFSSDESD
QUANTITY: IC50 (µM)
Return type: number; implicit unit µM.

NOC(c1ccccc1)c1cccc(F)c1 (stereo not drawn) | 6
NOC(c1ccccc1)c1cccc(C(F)(F)F)c1 (stereo not drawn) | 12

Briefly, IC50 measured for "NOC(c1ccc(Cl)cc1)c1ccc(Cl)cc1" : 2

Record "NOC(c1ccc(F)cc1)c1ccc(F)cc1" . Reported IC50: 9

For record NOC(c1ccccc1)c1ccc(Cl)cc1Cl (stereo not drawn) the listed IC50 is 6

# molecule NOC(c1ccccc1)c1cccc(Cl)c1Cl (stereo not drawn) ; its IC50 = 9

// sample NOC(c1ccccc1)c1ccc(Cl)c(Cl)c1 (stereo not drawn) , its IC50 was 4

The reported IC50 of the molecule NOC(c1ccccc1)c1ccc(Cl)cc1 (stereo not drawn) was 5

###

Below, each of the compounds is paired with its reported pIC50 value.
MEASURED TARGET: Indoleamine 2,3-dioxygenase 2 (Homo sapiens, UniProt Q6ZQW0)
Sequence (Q6ZQW0 whole entry): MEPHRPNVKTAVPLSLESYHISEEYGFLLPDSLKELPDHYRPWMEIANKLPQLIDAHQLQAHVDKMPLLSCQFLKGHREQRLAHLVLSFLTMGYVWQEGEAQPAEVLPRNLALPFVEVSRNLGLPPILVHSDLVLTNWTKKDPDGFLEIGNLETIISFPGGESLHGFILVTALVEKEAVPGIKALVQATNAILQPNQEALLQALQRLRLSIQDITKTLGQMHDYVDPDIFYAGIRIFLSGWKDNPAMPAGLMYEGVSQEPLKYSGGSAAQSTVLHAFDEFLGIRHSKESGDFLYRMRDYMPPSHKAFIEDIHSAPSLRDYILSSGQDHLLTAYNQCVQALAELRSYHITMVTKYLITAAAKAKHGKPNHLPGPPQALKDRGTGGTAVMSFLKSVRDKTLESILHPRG
Scale explanation: pIC50 corresponds to minus log10 of a concentration expressed in moles per litre.

NOC(c1ccccc1)c1ccc(Cl)c(Cl)c1 (configuration not stated) | 4.49

Per the records, this compound ( NOC(c1ccccc1)c1ccccc1Cl (configuration not stated) ) has pIC50 equal to 4.60

###

MEASURED TARGET: Indoleamine 2,3-dioxygenase 2 (Homo sapiens)
Sequence (whole entry): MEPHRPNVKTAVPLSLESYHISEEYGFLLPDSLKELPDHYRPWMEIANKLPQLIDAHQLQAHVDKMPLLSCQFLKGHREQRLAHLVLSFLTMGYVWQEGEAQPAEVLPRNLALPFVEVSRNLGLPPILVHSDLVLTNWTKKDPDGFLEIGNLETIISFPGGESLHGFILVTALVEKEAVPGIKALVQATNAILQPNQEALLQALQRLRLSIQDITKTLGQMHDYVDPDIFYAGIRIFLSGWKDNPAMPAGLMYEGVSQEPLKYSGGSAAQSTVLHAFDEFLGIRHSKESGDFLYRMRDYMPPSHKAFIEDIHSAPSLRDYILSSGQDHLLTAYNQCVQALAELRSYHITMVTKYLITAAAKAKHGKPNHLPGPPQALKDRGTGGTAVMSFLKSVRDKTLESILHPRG
ASSAY: Inhibition of IDO2 (unknown origin) at 100 uM using L-tryptophan as substrate by spectrophotometric method relative to control
QUANTITY: inhibition (%)
Your answer is read as %, so omit the unit and give the number.

Examples with their reported inhibition follow.
NOC(CCCC(=O)Nc1ccccc1)c1cccc(Cl)c1 (centres undefined) | 84.3
NOC(c1ccccc1)c1ccsc1 (centres undefined) | 76.5
COc1ccccc1C(ON)c1ccccc1 (centres undefined) | 80
NOC(c1ccccc1)c1cc(Cl)cc(Cl)c1 (centres undefined) | 69.8

Query NOC(c1ccccc1)c1ccccc1Br (centres undefined) yields inhibition of 81

The compound listed as NOC(c1ccccc1)c1cccc(C(F)(F)F)c1F (centres undefined) has a reported inhibition of 81.1

###

ASSAY: Cytotoxicity against human HeLa cells assessed as cell viability up to 100 uM relative to control
Assay type: cell-based
STUDY CONDITIONS: read-out: Activity
QUANTITY: viability

NOC(c1ccc(Cl)cc1)c1ccc(Cl)cc1 | ≥ 80%

Measured viability of "NOC(c1ccc(F)cc1)c1ccc(F)cc1" : ≥ 80%

Entry NOC(c1ccccc1)c1cc(C(F)(F)F)cc(C(F)(F)F)c1 (centres undefined) ; viability = 60%

For this compound ( NOC(c1ccccc1)c1cccc(F)c1 (centres undefined) ), measured viability is ≥ 80%

###

MEASURED TARGET: Indoleamine 2,3-dioxygenase 2 (Mus musculus, UniProt Q8R0V5)
Sequence (Q8R0V5 whole entry): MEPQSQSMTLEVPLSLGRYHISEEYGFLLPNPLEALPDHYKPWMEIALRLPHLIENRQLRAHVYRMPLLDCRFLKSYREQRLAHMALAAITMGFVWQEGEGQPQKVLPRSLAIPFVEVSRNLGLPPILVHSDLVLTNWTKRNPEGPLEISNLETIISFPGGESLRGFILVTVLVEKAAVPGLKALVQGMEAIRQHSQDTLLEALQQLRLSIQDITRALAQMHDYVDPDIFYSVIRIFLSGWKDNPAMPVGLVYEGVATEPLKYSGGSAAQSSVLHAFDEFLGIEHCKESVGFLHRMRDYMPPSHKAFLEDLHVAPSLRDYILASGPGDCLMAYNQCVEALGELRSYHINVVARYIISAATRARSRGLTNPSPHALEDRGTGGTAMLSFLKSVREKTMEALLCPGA
ASSAY: Inhibition of mouse IDO2 expressed in human T-REx cells using L-tryptophan as substrate after 20 hrs
QUANTITY: IC50 (µM)
# number only, unit µM dropped from output

NOC(c1ccccc1)c1cccc(Cl)c1Cl (stereo unspecified) | 8.95

IC50 reported for this compound NOC(c1ccccc1)c1ccc(O)cc1 (stereo unspecified) : 12.6

Sure, the documented IC50 for "NOC(c1ccc(Cl)cc1)c1ccc(Cl)cc1" is 12.5

Form field IC50, entry NOC(c1ccccc1)c1cc(F)cc(F)c1 (stereo unspecified) : 8.75

So for NOC(c1ccccc1)c1cccc(Br)c1 (stereo unspecified) , the logged IC50 turned out to be 11.8

Recorded result, NOC(c1ccccc1)c1ccccc1Cl (stereo unspecified) , IC50: 10.7

# IC50 (compound: NOC(c1ccccc1)c1ccccc1Br (stereo unspecified) ) is 12.3

Noted for NOC(c1ccccc1)c1ccc(Cl)cc1Cl (stereo unspecified) : its IC50 reads 7.68

// sample NOC(c1ccccc1)c1cc(Cl)cc(Cl)c1 (stereo unspecified) , its IC50 was 8.66

###

MEASURED TARGET: Indoleamine 2,3-dioxygenase 1 (Homo sapiens, UniProt P14902)
Sequence (P14902 whole entry): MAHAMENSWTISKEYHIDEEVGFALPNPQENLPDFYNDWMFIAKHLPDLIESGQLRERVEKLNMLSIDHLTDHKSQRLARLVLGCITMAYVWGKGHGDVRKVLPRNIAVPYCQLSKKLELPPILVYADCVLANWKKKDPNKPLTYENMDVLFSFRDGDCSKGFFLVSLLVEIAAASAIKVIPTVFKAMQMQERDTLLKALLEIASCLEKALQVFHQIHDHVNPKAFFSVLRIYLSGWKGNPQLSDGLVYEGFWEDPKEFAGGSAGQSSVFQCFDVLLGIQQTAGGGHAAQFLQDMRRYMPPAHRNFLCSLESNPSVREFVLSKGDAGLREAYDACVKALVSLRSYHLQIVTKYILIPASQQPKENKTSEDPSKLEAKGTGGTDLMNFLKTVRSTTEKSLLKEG
ASSAY: Inhibition of IDO1 in human HeLa cells using L-tryptophan as substrate after 20 hrs
Type: cell-based
STUDY CONDITIONS: hela
QUANTITY: pIC50
Remember the convention: pIC50 equals -log10 of concentration in molar.

NOC(c1ccccc1)c1cccc(C(F)(F)F)c1 (configuration not stated) | 5.76

Summary: COc1ccccc1C(ON)c1ccccc1 (configuration not stated) , Indoleamine 2,3-dioxygenase 1 (Homo sapiens, UniProt P14902), pIC50 = 5.95

###

A collection of molecules and their measured pIC50
MEASURED TARGET: Tryptophan 2,3-dioxygenase (Homo sapiens)
ASSAY: Inhibition of human TDO expressed in human T-REx cells using L-tryptophan as substrate after 20 hrs
Format: cell-based
Reminder that pIC50 means the negative base-10 logarithm of the concentration expressed in mol/L.

Below, each entry is followed by its recorded pIC50 result.
NOC(c1ccccc1)c1cc(C(F)(F)F)cc(C(F)(F)F)c1 (stereo not drawn) | 4.11
O=C1CC(c2c[nH]c3ccc(F)cc23)C(=O)N1 (stereo not drawn) | 3.42
NOC(CCCC(=O)Nc1ccccc1)c1cccc(Cl)c1 (stereo not drawn) | 3.91
NOC(c1ccccc1)c1cc(F)cc(F)c1 (stereo not drawn) | 5.46
NOC(c1ccccc1)c1ccc(Cl)cc1 (stereo not drawn) | 4.63
NOC(c1ccccc1)c1ccccc1Br (stereo not drawn) | 4.65
NOC(c1ccccc1)C1CCCCC1 (stereo not drawn) | 2.56
NOC(c1ccccc1)c1ccc(Cl)cc1Cl (stereo not drawn) | 5.32

pIC50 measured on NOC(c1ccccc1)c1ccc(F)cc1F (stereo not drawn) = 5.20

// pIC50 lookup, molecule = NOC(c1ccccc1)c1ccsc1 (stereo not drawn) , result: 5.36

Sample NOC(c1ccccc1)c1ccc(Cl)c(Cl)c1 (stereo not drawn) ; pIC50 observed: 5.09

molecule "NOC(c1ccc(Cl)cc1)c1ccc(Cl)cc1" , pIC50 observed: 5.34

Measured pIC50 of NOC(CCc1cccc(Cl)c1)c1ccccc1 (stereo not drawn) : 4.23

###

MEASURED TARGET: Tryptophan 2,3-dioxygenase (Homo sapiens, UniProt P48775)
ASSAY: Inhibition of TDO (unknown origin) at 100 uM using L-tryptophan as substrate by spectrophotometric method relative to control
Sequence (P48775 whole entry, looked up): as the sequence (P48775 whole entry) above
QUANTITY: inhibition (%)
Please reply with the bare figure in % and do not write the unit itself.

NOC(c1ccccc1)c1ccc(F)cc1F (centres undefined) | 90.3
NOC(c1ccccc1)c1ccsc1 (centres undefined) | 93.3
NOC(c1ccccc1)c1ccccc1Br (centres undefined) | 90.4

Record NOC(c1ccccc1)c1ccccc1F (centres undefined) , field inhibition: 87.2

The compound identified as NOC(c1ccccc1)c1ccccc1Cl (centres undefined) registered its inhibition at 89.8

According to the records, this compound NOC(c1ccccc1)c1cccc(C(F)(F)F)c1F (centres undefined) displays inhibition of 93.2

Value of inhibition reported for the compound NOC(c1ccccc1)c1cc(C(F)(F)F)ccc1F (centres undefined) is 73.4

###

MEASURED TARGET: Indoleamine 2,3-dioxygenase 1 (Homo sapiens, UniProt P14902)
ASSAY: Inhibition of IDO1 (unknown origin) using L-tryptophan as substrate by spectrophotometric method
Hi! Just check whether IC50 is below 5 µM. Below gives met, equal or above gives not met.

NOC(c1ccccc1)c1cccc(Cl)c1Cl (centres undefined) | not met

QUERY: Problem: For the compound NOC(c1ccccc1)c1cccc(C(F)(F)F)c1F (centres undefined) , is IC50 under 5 µM?
RESULT: not met

QUERY: Input NOC(CCCC(=O)Nc1ccccc1)c1cccc(Cl)c1 (centres undefined) ; condition: IC50 strictly below 5 µM. Does it hold?
RESULT: met

QUERY: Just wondering, is IC50 of NOC(c1ccccc1)c1cc(C(F)(F)F)ccc1F (centres undefined) below 5 µM?
RESULT: not met

QUERY: # TODO verify IC50 < 5 µM strictly for this compound: NOC(c1ccccc1)c1cccc(Br)c1 (centres undefined)
RESULT: met

QUERY: Check if IC50 falls below 5 µM for "NOC(c1ccc(Cl)cc1)c1ccc(Cl)cc1" .
RESULT: met

QUERY: In plain terms, does NOC(c1ccccc1)c1cc(F)cc(F)c1 (centres undefined) come in under 5 µM for IC50?
RESULT: met

QUERY: Confirm or reject: IC50 of NOC(c1ccccc1)c1ccc(Cl)cc1Cl (centres undefined) lies strictly below 5 µM
RESULT: met

QUERY: Does NOC(c1ccccc1)c1ccccc1F (centres undefined) have IC50 strictly under 5 µM?
RESULT: not met

QUERY: Field: below-cutoff. Rule: recorded IC50 strictly less than 5 µM. Subject: "NOC(c1ccc(F)cc1)c1ccc(F)cc1"
RESULT: not met

QUERY: In plain terms, does NOC(c1ccccc1)c1ccc(Cl)c(Cl)c1 (centres undefined) come in under 5 µM for IC50?
RESULT: met

QUERY: Field: below-cutoff. Rule: recorded IC50 strictly less than 5 µM. Subject: NOC(c1ccccc1)c1cc(Cl)cc(Cl)c1 (centres undefined)
RESULT: met

QUERY: Lab note: IC50 threshold 5 µM. Does this compound come in strictly under it? NOC(c1ccccc1)c1ccc(F)cc1F (centres undefined)
RESULT: not met

QUERY: Is IC50 strictly under 5 µM for the entry COc1ccccc1C(ON)c1ccccc1 (centres undefined) ?
RESULT: not met

QUERY: Dear reviewer, please state whether NOC(c1ccccc1)c1ccccc1Br (centres undefined) has IC50 strictly beneath 5 µM.
RESULT: not met

QUERY: Input NOC(CCc1cccc(Cl)c1)c1ccccc1 (centres undefined) ; condition: IC50 strictly below 5 µM. Does it hold?
RESULT: not met

QUERY: API: query returns whether the compound falls strictly under 5 µM in IC50. Query: NOC(c1ccccc1)c1ccccc1Cl (centres undefined)
RESULT: not met
